// provenance: paper PMC5261807

# subject of test: T1, Bdf1 bromodomain 1 (GST-tagged, WT) (Saccharomyces cerevisiae (strain ATCC …, UniProt P35817))
# T1 chain: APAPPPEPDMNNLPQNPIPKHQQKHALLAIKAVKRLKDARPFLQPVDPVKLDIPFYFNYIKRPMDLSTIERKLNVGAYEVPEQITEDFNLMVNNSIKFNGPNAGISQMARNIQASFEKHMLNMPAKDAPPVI
# assay: histone peptide array probed with recombinant GST-bromodomain, signal normalised to myc peptide control
Non-standard residues stand in square brackets, D forms with d. No end group written: not given here. pT = C[C@@H](OP(=O)(O)O)[C@H](N)C(=O)O; pS = N[C@@H](COP(=O)(O)O)C(=O)O
readout label: binding score

# binder, readout label, reported measurement
records = [
    ("ARTKQTARKSTGGKAPRKQ (A R T K Q T A Rme2s Kac pS T G G K A P R K Q)", "binding score", 0.00484),
    ("AR[pT]K(Me)QTARKSTGGKAPRKQ", "binding score", 0),
]

P = ARTKQTARKSTGGKAPRKQ (A Rme2a T Kac Q T A Rme2a Kme2 S T G G K A P R K Q)
Q = PDPAK(Ac)SAPAPKKG[pS]KKAVT [H2B 1-19]
Data request: Which entry has a larger number for binding score, P or Q ? State your choice using its label.
Data returned: Q
